# Target system: Cathepsin D (Cat D) (Homo sapiens (Human), UniProt P07339)
# Sequence (P07339 65-412, species assumed): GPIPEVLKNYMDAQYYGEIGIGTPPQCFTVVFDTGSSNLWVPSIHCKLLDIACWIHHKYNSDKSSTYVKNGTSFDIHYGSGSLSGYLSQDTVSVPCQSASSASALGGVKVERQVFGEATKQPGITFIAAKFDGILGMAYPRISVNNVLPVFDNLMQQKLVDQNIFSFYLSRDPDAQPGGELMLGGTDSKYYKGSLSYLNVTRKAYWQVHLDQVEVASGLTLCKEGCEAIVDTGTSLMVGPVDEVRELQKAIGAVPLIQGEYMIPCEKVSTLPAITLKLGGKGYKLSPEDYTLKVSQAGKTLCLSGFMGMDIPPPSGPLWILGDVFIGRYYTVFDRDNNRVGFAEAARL
# Protocol: In vitro enzymatic Cathepsin D (Cat D) FRET assay
# Type: biochemical
# Condition label: average IC50, cathepsin D enzyme assay; read-out: CatD IC50
Measure name: IC50

Example compounds with recorded IC50:
>>> df
                                 smiles_str                             target_system    result
0  NC1=N[C@](CF)(c2cc(NC(=O)c3ncc(C(F)(F)F)cc3Cl)ccc2F)C[C@@H](C(F)(F)F)O1  Cathepsin D (Cat D) (Homo sapiens (Human), UniProt P07339)  > 400 µM
1  C#CCOc1cnc(C(=O)Nc2ccc(F)c([C@]3(CF)C[C@@H](C(F)(F)F)OC(N)=N3)c2)cn1  Cathepsin D (Cat D) (Homo sapiens (Human), UniProt P07339)  > 400 µM

The record that follows has no IC50 shown yet.
So what's the measured IC50 for this one? NC1=N[C@](CF)(c2cc(Nc3ncc(F)c4cc(C#CC5CC5)cnc34)ccc2F)C[C@@H](C(F)(F)F)O1
> 133 µM

----------
# Target system: Cathepsin D (Cat D) (Homo sapiens (Human))
# Protocol: In vitro enzymatic Cathepsin D (Cat D) FRET assay
# Type: biochemical
# Condition label: average IC50; read-out: CatD IC50
Measure name: IC50

Example compounds with recorded IC50:
>>> print(df.to_string())
                                   compound  measure_name    result
0  C[C@@]1(c2cc(NC(=O)c3ncc(C#N)cc3Cl)cnc2F)C[C@@H](C(F)(F)F)OC(N)=N1 [Example 66]          IC50  > 400 µM
1  C[C@@]1(c2cc(NC(=O)c3ccc(Cl)cn3)cnc2F)C[C@@H](C(F)(F)F)OC(N)=N1 [Example 60]          IC50  > 400 µM
2  NC1=N[C@](CF)(c2cc(Oc3cccc(C(F)(F)F)n3)ccc2F)C[C@@H](C(F)(F)F)O1 [Example 110]          IC50   1820 µM
3  COc1ncc(NC(=O)c2ccc(Cl)cn2)cc1[C@]1(C)C[C@@H](C(F)(F)F)OC(N)=N1 [Example 147]          IC50   1420 µM

// each compound listed below needs its IC50
1. C[C@@]1(c2nc(Nc3ncc(F)c4cc(C#N)cnc34)ccc2F)C[C@@H](C(F)(F)F)OC(N)=N1 [Example 89]
2. Cc1cc(OC(F)F)cnc1C(=O)Nc1ccc(F)c([C@]2(C)C[C@@H](C(F)(F)F)OC(N)=N2)n1 [Example 85]
3. COc1cnc2c(Nc3ccc(F)c([C@]4(CF)C[C@@H](C(F)(F)F)OC(N)=N4)c3)nccc2n1 (racemic) [Example 9]
4. NC1=N[C@](CF)(c2cc(Oc3ncccc3Cl)ccc2F)C[C@@H](C(F)(F)F)O1 [Example 97]
5. NC1=N[C@](CF)(c2cc(NC(=O)c3ccc(Cl)cn3)cnc2F)C[C@@H](C(F)(F)F)O1 [Example 139]
6. NC1=N[C@](CF)(c2cc(NC(=O)c3ccc(F)cn3)ccc2F)C[C@@H](C(F)(F)F)O1 [Example 57]

229 µM
492 µM
> 400 µM
1010 µM
> 400 µM
4060 µM

// each compound listed below needs its IC50
1. C[C@@]1(c2cc(Nc3ncnc4cc(Cl)cnc34)cnc2F)C[C@@H](C(F)(F)F)OC(N)=N1 [Example 74]
2. COc1cnc2c(Nc3ccc(F)c([C@]4(CF)C[C@@H](C(F)(F)F)OC(N)=N4)c3)nccc2c1 [Example 12]
3. NC1=N[C@](CF)(c2cc(Nc3nccc4cc(Cl)cnc34)ccc2F)C[C@@H](C(F)(F)F)O1 [Example 8]
4. COc1cnc(C(=O)Nc2ccc(F)c([C@]3(CF)C[C@H](C(F)(F)F)OC(N)=N3)c2)cn1 (racemic) [Example 25]
5. N#Cc1ccc(C(=O)Nc2cccc([C@]3(CF)C[C@@H](C(F)(F)F)OC(N)=N3)c2)nc1 [Example 144]

1: > 400 µM; 2: > 400 µM; 3: > 400 µM; 4: > 400 µM; 5: 665 µM

// each compound listed below needs its IC50
1. COc1cnc(C(=O)Nc2ccc(F)c([C@]3(C)C[C@@H](C(F)(F)F)OC(N)=N3)c2)cn1 [Example 27]
2. Cc1cc(C#N)cnc1C(=O)Nc1cnc(F)c([C@]2(CF)C[C@@H](C(F)(F)F)OC(N)=N2)c1 [Example 140]
3. C[C@@]1(c2cc(NC(=O)c3ccc(Cl)cn3)ccc2F)C[C@@H](C(F)(F)F)OC(N)=N1 [Example 26]
4. NC1=N[C@](CF)(c2cc(NC(=O)c3ccc(OCC(F)(F)F)cn3)ccc2F)C[C@@H](C(F)(F)F)O1 [Example 5]

> 400 µM
> 400 µM
> 400 µM
> 400 µM

Cited source for all entries: patent US9296734B2
